Sourced from patent US20190112365A1

molecular target: T1, Human Tau 2N4R, wild type, recombinant full length (human, UniProt P10636 2-758); assay: SPR BIAcore, mAb captured by anti-human IgG, Tau flowed, 1:1 Langmuir
T1 construct: Full length 2N4R isoform; monomer in SPR and ELISA; heparin-induced aggregates or seeds in the functional assays; also called Tau441; Tau-441
T1 sequence (P10636 other isoform, or with tags, fused parts or gaps limits assumed): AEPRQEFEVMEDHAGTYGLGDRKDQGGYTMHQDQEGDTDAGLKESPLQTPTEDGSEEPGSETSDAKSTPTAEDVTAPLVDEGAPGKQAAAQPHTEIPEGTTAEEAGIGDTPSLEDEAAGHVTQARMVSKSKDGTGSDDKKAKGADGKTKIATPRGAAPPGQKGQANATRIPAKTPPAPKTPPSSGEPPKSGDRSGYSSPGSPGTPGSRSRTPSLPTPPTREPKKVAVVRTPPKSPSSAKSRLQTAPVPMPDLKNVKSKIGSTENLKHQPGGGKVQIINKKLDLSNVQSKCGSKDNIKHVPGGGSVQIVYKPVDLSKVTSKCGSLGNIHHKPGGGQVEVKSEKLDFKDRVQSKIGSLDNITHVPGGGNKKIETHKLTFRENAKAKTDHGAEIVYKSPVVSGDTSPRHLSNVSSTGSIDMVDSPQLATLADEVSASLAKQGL
outcome-measure: kon (M⁻¹ s⁻¹)
Value expressed in M⁻¹ s⁻¹; do not type the unit.

Below, 5 binders whose answers are already recorded.
>>> endpoint_result("7G6-HCzu7-LCzu6 (antibody, human IgG1, kappa, V domains shown, humanized, human IgG1 kappa) VH: QVQLVQSGAEVKKPGASVKVSCKASGYTFTTYWITWVRQAPGQGLEWMGDIYPGSSISNYAQKFQGRVTMTVDTSTSTVYMELSSLRSEDTAVYYCAREDGYDAWFAYWGQGTLVTVSS VL: DVVMTQSPLSLPVTLGQPASISCRSSQSILHSNGNTYLEWYQQRPGQSPRLLISKVSNRFSGVPDRFSGSGSGTDFTLKISRVEAEDVGVYYCFQGSHVPFTFGQGTKLEIKR")
"2.08e+06"
>>> endpoint_result("7G6-HCzu6-LCzu6 (antibody, human IgG1, kappa, V domains shown, humanized, human IgG1 kappa) VH: QVQLVQSGAEVKKPGASVKVSCKASGYTFTTYWITWVRQAPGQGLEWMGDIYPGSSISNYNEKFKSRVTMTVDTSTSTVYMELSSLRSEDTAVYYCAREDGYDAWFAYWGQGTLVTVSS VL: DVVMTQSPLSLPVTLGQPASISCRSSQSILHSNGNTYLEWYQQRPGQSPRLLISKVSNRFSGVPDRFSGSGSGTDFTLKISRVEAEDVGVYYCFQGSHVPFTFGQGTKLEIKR")
"2.21e+06"
>>> endpoint_result("7G6-HCzu5-LCzu8 (antibody, human IgG1, kappa, V domains shown, humanized, human IgG1 kappa) VH: QVQLVQSGAEVKKPGASVKVSCKASGYTFTTYWITWVRQAPGQGLEWMGDIYPGSSISNYNEKFKSRVTMTVDTSTSTAYMELSSLRSEDTAVYYCAREDGYDAWFAYWGQGTLVTVSS VL: DVVMTQSPLSLPVTLGQPASISCRSSQSIVHSNGNTYLEWFQQRPGQSPRRLISKVSNRFSGVPDRFSGSGSGTDFTLKISRVEAEDVGVYYCFQGSHVPFTFGQGTKLEIKR")
"3.6e+06"
>>> endpoint_result("7G6-HCzu8-LCzu6 (antibody, human IgG1, kappa, V domains shown, N-terminal pyroglutamic acid, humanized, human IgG1 kappa; also called 7G6-HCzu8-LCzu6-HEK; ATCC PTA-124523) VH: QVQLVQSGAEVKKPGASVKVSCKASGYTFTTYWITWVRQAPGQGLEWMGDIYPGSSISNYAQKFQGRVTMTRDTSTSTVYMELSSLRSEDTAVYYCAREDGYDAWFAYWGQGTLVTVSS VL: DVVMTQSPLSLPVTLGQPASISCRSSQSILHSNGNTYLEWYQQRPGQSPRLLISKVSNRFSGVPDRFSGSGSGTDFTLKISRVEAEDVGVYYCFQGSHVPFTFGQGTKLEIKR")
"2.17e+06"
>>> endpoint_result("7G6-HCzu5-LCzu10 (antibody, human IgG1, kappa, V domains shown, humanized, human IgG1 kappa) VH: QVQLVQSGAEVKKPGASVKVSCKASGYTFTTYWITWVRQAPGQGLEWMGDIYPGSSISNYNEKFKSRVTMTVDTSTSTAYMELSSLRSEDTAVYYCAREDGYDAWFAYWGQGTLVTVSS VL: DVVMTQSPLSLPVTLGQPASISCRSSQSIVHSNGNTYLEWFQQRPGQSPRRLIYKVSNRFSGVPDRFSGSGSGTDFTLKISRVEAEDVGVYYCFQGSHVPFTFGQGTKLEIKR")
"3.27e+06"

Sample 7G6-HCzu3-LCzu6 (antibody, human IgG1, kappa, V domains shown, humanized, human IgG1 kappa) VH: QVQLVQSGAEVKKPGASVKVSCKASGYTFTTYWITWVRQAPGQGLEWMGDIYPGSSICNYNEKFKSRVTMTVDTSTSTAYMELSSLRSEDTAVYYCAREDGYDAWFAYWGQGTLVTVSS VL: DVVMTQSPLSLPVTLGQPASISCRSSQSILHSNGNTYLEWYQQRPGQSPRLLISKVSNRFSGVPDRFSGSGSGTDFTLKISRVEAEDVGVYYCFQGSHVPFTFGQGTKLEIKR ; kon observed: 1.9e+06

Looking up 7G6-HCzu2-LCzu1 (antibody, human IgG1, kappa, V domains shown, humanized, human IgG1 kappa) VH: QVQLVQSGAEVKKPGASVKVSCKASGYTFTTYWITWVRQAPGQGLEWMGDIYPGSSICNYNEKFKSRVTMTVDTSTSTVYMELSSLRSEDTAVYYCAREDGYDAWFAYWGQGTLVTVSS VL: DVVMTQSPLSLPVTLGQPASISCRSSQSILHSNGNTYLEWFQQRPGQSPRRLIYKVSNRFSGVPDRFSGSGSGTDFTLKISRVEAEDVGVYYCFQGSHVPFTFGQGTKLEIKR , I found its kon recorded as 2.83e+06

Entry 7G6-HCzu5-LCzu21 (antibody, human IgG1, kappa, V domains shown, humanized, human IgG1 kappa) VH: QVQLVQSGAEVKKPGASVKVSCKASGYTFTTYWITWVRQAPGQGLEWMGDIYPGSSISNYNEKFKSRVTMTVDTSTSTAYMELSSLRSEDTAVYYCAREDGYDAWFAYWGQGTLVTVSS VL: DVVMTQSPLSLPVTLGQPASISCRSSQSILHSNGNTYLEWFQQRPGQSPRLLISKVSNRFSGVPDRFSGSGSGTDFTLKISRVEAEDVGVYYCFQGSHVPFTFGQGTKLEIKR — recorded kon = 2.93e+06
